# test details: Cytotoxicity against HEK293T cells assessed as reduction in cell viability measured after 72 hrs by MTT assay
# Format: cell-based, HEK-293T
# measurement setup: human
Binary label based on CC50 at 72 h with cut-off 40 nM: below gives TRUE, not below gives FALSE.

smiles | label value
CC(=O)O[C@H]1C(=O)[C@@]2(C)[C@H]([C@H](OC(=O)c3ccccc3)[C@]3(O)C[C@H](OC(=O)[C@H](OC(=O)CCCc4cn(CCCCCC(=O)N(CCCC[C@H](NC(=O)N[C@@H](CCC(=O)O)C(=O)O)C(=O)O)Cc5ccc(O)cc5)nn4)[C@@H](NC(=O)c4ccccc4)c4ccccc4)C(C)=C1C3(C)C)[C@]1(OC(C)=O)CO[C@@H]1C[C@@H]2O | TRUE
CC(=O)O[C@H]1C(=O)[C@@]2(C)[C@H]([C@H](OC(=O)c3ccccc3)[C@]3(O)C[C@H](OC(=O)[C@H](OC(=O)CCCc4cn(CCCCCCCCCCNC(=O)NCCCC[C@H](NC(=O)N[C@@H](CCC(=O)O)C(=O)O)C(=O)O)nn4)[C@@H](NC(=O)c4ccccc4)c4ccccc4)C(C)=C1C3(C)C)[C@]1(OC(C)=O)CO[C@@H]1C[C@@H]2O | FALSE
CC(=O)O[C@H]1C(=O)[C@@]2(C)[C@H]([C@H](OC(=O)c3ccccc3)[C@]3(O)C[C@H](OC(=O)[C@H](OC(=O)CCCc4cn(CCCCCNC(=O)NCCCC[C@H](NC(=O)N[C@@H](CCC(=O)O)C(=O)O)C(=O)O)nn4)[C@@H](NC(=O)c4ccccc4)c4ccccc4)C(C)=C1C3(C)C)[C@]1(OC(C)=O)CO[C@@H]1C[C@@H]2O | TRUE
CC(=O)O[C@H]1C(=O)[C@@]2(C)[C@H]([C@H](OC(=O)c3ccccc3)[C@]3(O)C[C@H](OC(=O)[C@H](OC(=O)CCCc4cn(CCCCCCCCCCC(=O)N(CCCC[C@H](NC(=O)N[C@@H](CCC(=O)O)C(=O)O)C(=O)O)Cc5ccc(Cl)cc5)nn4)[C@@H](NC(=O)c4ccccc4)c4ccccc4)C(C)=C1C3(C)C)[C@]1(OC(C)=O)CO[C@@H]1C[C@@H]2O | TRUE
CC(=O)O[C@H]1C(=O)[C@@]2(C)[C@H]([C@H](OC(=O)c3ccccc3)[C@]3(O)C[C@H](OC(=O)[C@H](OC(=O)CCCc4cn(CCCCCCCCCCC(=O)NCCCC[C@H](NC(=O)N[C@@H](CCC(=O)O)C(=O)O)C(=O)O)nn4)[C@@H](NC(=O)c4ccccc4)c4ccccc4)C(C)=C1C3(C)C)[C@]1(OC(C)=O)CO[C@@H]1C[C@@H]2O | FALSE
CC(=O)O[C@H]1C(=O)[C@@]2(C)[C@H]([C@H](OC(=O)c3ccccc3)[C@]3(O)C[C@H](OC(=O)[C@H](O)[C@@H](NC(=O)c4ccccc4)c4ccccc4)C(C)=C1C3(C)C)[C@]1(OC(C)=O)CO[C@@H]1C[C@@H]2O | TRUE
CC(=O)O[C@H]1C(=O)[C@@]2(C)[C@H]([C@H](OC(=O)c3ccccc3)[C@]3(O)C[C@H](OC(=O)[C@H](OC(=O)CCCc4cn(CCCCCC(=O)N(CCCC[C@H](NC(=O)N[C@@H](CCC(=O)O)C(=O)O)C(=O)O)Cc5ccc(F)cc5)nn4)[C@@H](NC(=O)c4ccccc4)c4ccccc4)C(C)=C1C3(C)C)[C@]1(OC(C)=O)CO[C@@H]1C[C@@H]2O | TRUE
